Test: Toxicity liver stage against HepG2, at 10uM
Type: cell-based
Design: test concentration 10 uM, cell line HepG2-A16-CD81EGFP
Settings: human, HepG2-A16-CD81EGFP cells; read-out: INHIBITION
Recorded cytotoxicity at 10 µM, one value per entry.
Value and unit, in that order.

{"COMPOUND": "COc1cc(C(C)=O)ccc1OCC(=O)c1cccn1C", "cytotoxicity at 10 µM": "13.6%"}
{"COMPOUND": "CN(CCC(=O)N1CCc2sccc2C1)Cc1ccc2c(c1)OCCO2", "cytotoxicity at 10 µM": "-14.8%"}
{"COMPOUND": "COc1c(C)cnc(CN2CCCCC2Cn2nc(C)nc2C)c1C (stereo not drawn)", "cytotoxicity at 10 µM": "-0.627%"}
{"COMPOUND": "CC(=O)N1CCOCC2(CCN(Cc3ccc(C)s3)CC2)C1", "cytotoxicity at 10 µM": "-5.39%"}
{"COMPOUND": "CN1CCCC(c2cccc(Cc3ccccc3Cl)n2)C1 (stereo not drawn)", "cytotoxicity at 10 µM": "1.03%"}
{"COMPOUND": "COCC1CCCCN1C(=O)c1cc(Cn2ccc3ccccc32)[nH]n1 (stereo not drawn)", "cytotoxicity at 10 µM": "-3.54%"}
{"COMPOUND": "O=C(NCC1(O)CCOCC1)c1ccc(F)cc1", "cytotoxicity at 10 µM": "-9.52%"}

Pending compound:
Q. Consider the compound `Cc1cc(C[C@@H]2COC[C@@H]2NC(=O)CN2CCCCCC2)on1` and give its measured cytotoxicity at 10 µM.
A. 1.29%

----------
Recorded cytotoxicity at 10 µM, one value per entry.
Assay: Toxicity liver stage against HepG2, at 10uM
Assay type: cell-based
Set-up: test concentration 10 uM, cell line HepG2-A16-CD81EGFP
Conditions: human, HepG2-A16-CD81EGFP cells; read-out: INHIBITION
Give the value in % but do not write % after it.

Q. Consider the molecule `Cc1cccc(C)c1OC1CCN(Cc2ccn(C)c(=O)c2)CC1` and give its measured cytotoxicity at 10 µM.
A. -2.95

Q. Consider the molecule `Cc1nnc(NCc2ccccc2Cl)c(C#N)c1C` and give its measured cytotoxicity at 10 µM.
A. -5.06

Q. Consider the molecule `CCn1cnnc1CNC(=O)N1CCC(C(=O)NC)CC1` and give its measured cytotoxicity at 10 µM.
A. 2.65

Q. Consider the molecule `O=C(NC1CC1)c1ccnc(-c2cc(NCCO)nc3[nH]ccc23)c1` and give its measured cytotoxicity at 10 µM.
A. 5.61

Q. Consider the molecule CCCn1cc(CN2CCCC2c2cccc(-n3ccnc3)n2)cn1 (centres undefined) and give its measured cytotoxicity at 10 µM.
A. -19.6

Q. Consider the molecule `Cc1cn(CC(=O)N(C)Cc2cccc3ncccc23)c(=O)[nH]c1=O` and give its measured cytotoxicity at 10 µM.
A. 14.2

Q. Consider the molecule `CN(CCc1ccccc1)Cc1cc(C(=O)N2CCSCC2)no1` and give its measured cytotoxicity at 10 µM.
A. 3.88

Q. Consider the molecule Cc1ccc(CNC(c2cccc(F)c2)c2nccn2C)o1 (centres undefined) and give its measured cytotoxicity at 10 µM.
A. 5.48

Q. Consider the molecule `O=C(NCCNc1ccc(Br)cn1)c1ccc(O)cc1` and give its measured cytotoxicity at 10 µM.
A. 0.612

Q. Consider the molecule `CN1CCC(CNC(=O)NCc2ccc(N(C)C)cc2)CC1` and give its measured cytotoxicity at 10 µM.
A. -1.42

Q. Consider the molecule `FC(F)Oc1ccc(CN2CCOC3(CCOCC3)C2)cc1Cl` and give its measured cytotoxicity at 10 µM.
A. -6.58

Q. Consider the molecule `CC(C)NC(=O)c1nc(COc2ccc3c(c2)OCO3)no1` and give its measured cytotoxicity at 10 µM.
A. -1.11

Q. Consider the molecule c1cc(CN2CCC3(CC2)COC(COCC2CC2)C3)cs1 (centres undefined) and give its measured cytotoxicity at 10 µM.
A. -0.272

Q. Consider the molecule CN(C)c1ncccc1CNc1cc(N2CCCC2CO)ncn1 (centres undefined) and give its measured cytotoxicity at 10 µM.
A. -8.48

----------
Test: Toxicity liver stage against HepG2, at 10uM
Type: cell-based
Set-up: test concentration 10 uM, cell line HepG2-A16-CD81EGFP
Details: human, HepG2-A16-CD81EGFP cells; read-out: INHIBITION
Recorded cytotoxicity at 10 µM, one value per entry.
Give the value in % but do not write % after it.

Example cases with answers are listed next.
{"MOLECULE": "CC(O)CNCc1ccccc1C(F)(F)F (stereo unspecified)", "ASSAY_READOUT": "cytotoxicity at 10 µM", "MEASURED_RESULT": -3.3}
{"MOLECULE": "Oc1cc(-c2cccs2)nc(C2CCCN(CC3=CCCOC3)C2)n1 (stereo unspecified)", "ASSAY_READOUT": "cytotoxicity at 10 µM", "MEASURED_RESULT": -5.56}

Q. Consider the molecule `CC(C)OCCOCc1cccc(NC(=O)NCc2ccncc2)c1` and give its measured cytotoxicity at 10 µM.
A. -12

Q. Consider the molecule `Cc1ccc(-n2c(SCC(=O)O)nnc2-c2ccccc2)cc1` and give its measured cytotoxicity at 10 µM.
A. -19.3

----------
Recorded cytotoxicity at 10 µM, one value per entry.
Test: Toxicity liver stage against HepG2, at 10uM
Assay type: cell-based
Set-up: test concentration 10 uM, cell line HepG2-A16-CD81EGFP
Conditions: human, HepG2-A16-CD81EGFP cells; read-out: INHIBITION
Give the value in % but do not write % after it.

Example cases with answers are listed next.
{"COMPOUND": "O=C1N(Cc2ccc(F)c(F)c2)CCCC12CCN(C1CCCCC1)C2 (stereo not drawn)", "cytotoxicity at 10 µM (%)": -0.268}
{"COMPOUND": "Cc1nccn1CCCNc1ncccc1C#N", "cytotoxicity at 10 µM (%)": -9.09}

Pending compound:
Q. Consider the compound Cc1nc(C2CCCN(C(=O)CCCn3cccn3)C2)sc1C (stereo not drawn) and give its measured cytotoxicity at 10 µM.
A. -0.317

----------
Recorded cytotoxicity at 10 µM, one value per entry.
Assay: Toxicity liver stage against HepG2, at 10uM
Assay type: cell-based
Design: test concentration 10 uM, cell line HepG2-A16-CD81EGFP
Conditions: human, HepG2-A16-CD81EGFP cells; read-out: INHIBITION

{"MOLECULE": "CN(C)[C@@H]1CCN(C(=O)c2cccn2C)[C@H]1Cc1cnn(C)c1", "cytotoxicity at 10 µM": "-74.6%"}
{"MOLECULE": "CC1(c2ncc(CN3CCOCC3)cn2)CCCCO1 (configuration not stated)", "cytotoxicity at 10 µM": "6.08%"}
{"MOLECULE": "O=C(Nc1cccc2ccccc12)N1CCC(N2CCSCC2)CC1", "cytotoxicity at 10 µM": "-1.86%"}
{"MOLECULE": "CC(C)c1nc(C2CCCN2Cc2ccon2)no1 (configuration not stated)", "cytotoxicity at 10 µM": "-3.5%"}
{"MOLECULE": "CCc1cc(C(=O)N2CCc3nc4c(C)csc4c(=O)n3CC2)on1", "cytotoxicity at 10 µM": "-14.9%"}
{"MOLECULE": "CCS(=O)(=O)N1CC[C@@H]2[C@H](CC1)N(CC(C)C)CCS2(=O)=O", "cytotoxicity at 10 µM": "8.4%"}

Q. Consider the molecule `COc1nn(C)c2c1CCCN(C(=O)c1ccc3ccccc3n1)C2` and give its measured cytotoxicity at 10 µM.
A. 13.7%

Q. Consider the molecule `c1ccc(-c2cc(CN3C[C@H]4CC[C@@H](C3)N(CC3CCC3)C4)on2)cc1` and give its measured cytotoxicity at 10 µM.
A. 3.27%

Q. Consider the molecule `Cc1ccc(OC2(C(=O)O)CCN(C(=O)CCc3ccco3)CC2)cn1` and give its measured cytotoxicity at 10 µM.
A. 1.33%

Q. Consider the molecule `CCn1ccnc1CNc1nccc(-c2cn(C)nc2C)n1` and give its measured cytotoxicity at 10 µM.
A. -4.6%

Q. Consider the molecule `O=C(c1c2c(N3CCCC3)ncnc2n2ccccc12)N1CCOCC1` and give its measured cytotoxicity at 10 µM.
A. 9.49%

Q. Consider the molecule `Cn1cccc1C(=O)N1CCC2(CC1)CN(c1ccccc1)C(=O)CO2` and give its measured cytotoxicity at 10 µM.
A. -79.1%

Q. Consider the molecule `O=C(C1CCCCC1)N1CCC2(CCCN2CC2CC2)CC1` and give its measured cytotoxicity at 10 µM.
A. 3.56%

----------
Experiment: Toxicity liver stage against HepG2, at 10uM
Type: cell-based
Set-up: test concentration 10 uM, cell line HepG2-A16-CD81EGFP
Conditions: human, HepG2-A16-CD81EGFP cells; read-out: INHIBITION
ASSAY_READOUT: cytotoxicity at 10 µM
Value and unit, in that order.

Example cases with answers are listed next.
{"MOLECULE": "CCn1nc(C)c2nnn(CC(=O)Nc3cccc(C)c3)c(=O)c21", "cytotoxicity at 10 µM": "10.1%"}
{"MOLECULE": "O=C1NCC2(CCCN(C(=O)Nc3ccc4scnc4c3)CC2)O1 (stereo not drawn)", "cytotoxicity at 10 µM": "-5.59%"}
{"MOLECULE": "Cc1nc(N(C)CCCc2nccn2C)c2c(C)nn(C)c2n1", "cytotoxicity at 10 µM": "5.84%"}
{"MOLECULE": "CC(CC#N)N1CCN(C(=O)OC(C)(C)C)CC1 (stereo not drawn)", "cytotoxicity at 10 µM": "-2.72%"}
{"MOLECULE": "Cc1cnc(N2CCO[C@@H]3CC(COCc4cccnc4)C[C@H]32)nc1 (stereo partly drawn)", "cytotoxicity at 10 µM": "3.93%"}
{"MOLECULE": "Cc1ccc(NS(=O)(=O)c2cc(C(=O)O)oc2C)c(Br)c1", "cytotoxicity at 10 µM": "1.83%"}

Pending molecule:
Q. Consider the molecule CCS(=O)(=O)CCN1CCN(C2CCC(C(C)C)CC2)CC1 (stereo not drawn) and give its measured cytotoxicity at 10 µM.
A. 7.76%

The reported numbers originate from ChEMBL document CHEMBL4513216.
